Entry source: PubChem BioAssay

Test: inhibitors of the yeast RAM network, pilot screen, dse1pr::URA3 reporter, 5-FOA selection (AID 869);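 also: 0% = DMSO wells with no growth and 100% = 10 µM 1-NA-PP1 with full growth; RAM network block rescues cells from 5-FOA so hits raise OD615 growth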
Conditions: S. cerevisiae dse1pr::URA3 5-FOA growth, OD615, 2 d; at 10 µM; hits give high values; strain carries analog-sensitive mutant Cbk1 kinase

{"compound": "CCCC1(C(=O)O)NC(c2cccc(OC)c2O)C2C(=O)N(c3ccccc3)C(=O)C21 (stereo unspecified)", "inhibition / %": 0.49}
{"compound": "CCOC(=O)c1[nH]c(=O)[nH]c1CSc1nc(C)cc(C)n1", "inhibition / %": 0.985}
{"compound": "Cc1cc(NC(=O)C2CC(c3ccc(F)cc3)=NO2)n(-c2ccccc2)n1 (stereo unspecified)", "inhibition / %": 1.16}
{"compound": "O=C(CSc1nccn1-c1ccc(Cl)cc1)NCc1ccc2c(c1)OCO2", "inhibition / %": 1.3}
{"compound": "CCc1ccc(NC(=O)c2cnc3n(c2=O)CCS3)cc1", "inhibition / %": 2.82}
{"compound": "C=CCNC(=O)c1c(Cl)cccc1Cl", "inhibition / %": 0.94}
{"compound": "COc1ccc(CN2CCN(C(=O)c3ccco3)CC2)cc1OCc1ccccc1", "inhibition / %": 0.95}
{"compound": "Cc1cc(NC(=O)CN2CCCCC2C)nc2c1c(=O)oc1ccccc12 (stereo unspecified)", "inhibition / %": 1.36}
{"compound": "CCOC(=O)N1CCN(C(=O)CSc2nnc(-c3ccc(C)c(C)c3)o2)CC1", "inhibition / %": 2.31}
{"compound": "Cc1ccc2nc(NC(=O)CCNS(=O)(=O)c3cccs3)sc2c1", "inhibition / %": 0.45}
{"compound": "O=S(=O)(c1ccc(N2CC=C(c3ccccc3)CC2)nc1)N1CCCC1", "inhibition / %": 2.18}
{"compound": "COc1ccc2[nH]cc(CCNC(=O)C3CCCNC3=O)c2c1 (stereo unspecified)", "inhibition / %": 0.15}
{"compound": "COc1ccc(S(=O)(=O)NCc2cn3c(C)csc3n2)cc1F", "inhibition / %": 0.86}
{"compound": "CS(=O)(=O)n1nc(C(=O)N2CCOCC2)nc1N", "inhibition / %": 2.68}
{"compound": "CC(=O)c1c(C)nn(C(=O)c2cccs2)c1C", "inhibition / %": 1.89}
{"compound": "COc1ccc(OC)c(NC(=O)CNC(=O)Cn2ccc3ccccc3c2=O)c1", "inhibition / %": 3.29}
{"compound": "CC1CCN(C(=O)C(Cc2ccccc2)NS(=O)(=O)c2ccc3c(c2)oc(=O)n3C)CC1 (stereo unspecified)", "inhibition / %": 1.85}
{"compound": "CCCCC(=O)Nc1ccc2c(c1)C(=O)NC2=O", "inhibition / %": 2.62}
{"compound": "Cc1ccc(-c2nc(CS(=O)CC(=O)NC3CCCC3)c(C)o2)cc1 (stereo unspecified)", "inhibition / %": 1.08}
{"compound": "COCCNC(=O)CS(=O)Cc1nc(-c2ccc(Cl)cc2)oc1C (stereo unspecified)", "inhibition / %": 3.21}
{"compound": "COc1ccc(-n2c(Cn3c(=O)sc4ccccc43)nnc2SCC(=O)N2CCOCC2)cc1", "inhibition / %": 0.235}
